assayRemarks: Phase solubility study: solubility of pure ALB in distilled water
Type: physicochemical
testConditions: thermodynamic from solid, 25 °C
Protocol: Phase solubility tests were conducted in distilled water following the procedure outlined in the Higuchi and Connors technique. […] Samples were placed in the water bath (25 °C/2 days/50 rpm) to attain equilibrium. Samples of 3 mL were withdrawn and filtered through a 0.45 μm nylon membrane filter. The filtrate (1 mL) was diluted appropriately with methanol, stirred for one hour (200 rpm), and assayed at 340 nm. The concentrations used were 2, 4, 10, 15, and 20 mmol/L for both βCD and HPβCD.
recordedEndpoint: solubility at 2 days

What the record says about CCc1cc2c(cc1N1CCC(N3CCOCC3)CC1)C(C)(C)c1[nH]c3cc(C#N)ccc3c1C2=O : solubility at 2 days is 2 µM
